This collection of values is drawn from PubChem BioAssay (NCI).

# Test system: MALME-3M melanoma
# measurementDescription: NCI tumour cell line growth inhibition, 48 h
assayEndpoint: log10(TGI) (log10 of the value in µM)
Transform log10 | Measure TGI | Unit µM

Sample records with log10(TGI):
>  <molecule>
O=C(CN(/C=C/C(=O)C(F)(F)F)c1ccc(Cl)cc1)c1ccc(Cl)cc1

>  <log10(TGI)>
1.71

$$$$
>  <molecule>
C=C(Cl)C(Cl)(CBr)CCC(Br)C(C)(C)Br (stereo not given)

>  <log10(TGI)>
1.47

$$$$
>  <molecule>
COC(COC(N)=O)C1=C(N2CC2)C(=O)C(C)=C(N2CC2)C1=O (stereo not given)

>  <log10(TGI)>
-0.52

$$$$
>  <molecule>
Cc1cc(S(=O)(=O)NC2=NCc3nc4ccccc4n32)c(S)cc1Cl

>  <log10(TGI)>
1.75

$$$$

# context switch: different molecule, same log10(TGI)
Request: Can you look up the measured log10(TGI) of CC(=O)O[C@@H]1C2CCC3C(CC[C@@]4(C)C3CC[C@@H]4C(C)N(C)C)[C@@]2(C)CC[C@@H]1NC(=O)C=C(C)C (stereo not given in full) for me?
Response: 0.59

====

# Tested on: NCI/ADR-RES ovarian
# measurementDescription: NCI tumour cell line growth inhibition, 48 h
Please respond with reported TGI for every item in the list.
Numbers only, in µM.

Sample records with TGI:
>  <molecule>
C[C@@H](Oc1cc(-n2cnc3ccc(OC4CCN(C)CC4)cc32)sc1C(N)=O)c1ccccc1Cl

>  <TGI (µM)>
3.58

$$$$
>  <molecule>
Cc1ccc(O)c(NC(=O)c2cccc(Nc3ccnc(C(F)(F)F)c3)c2)c1

>  <TGI (µM)>
32.4

$$$$
>  <molecule>
COc1ccc(C2(Cl)c3ccccc3N(c3ccccc3)c3ccccc32)cc1

>  <TGI (µM)>
10.5

$$$$
>  <molecule>
O=C(CN(/C=C/C(=O)C(F)(F)F)c1ccc(Cl)cc1)c1ccc(Cl)cc1

>  <TGI (µM)>
37

$$$$

Dear reader, for each entry below, please note its TGI.
1. CC1(C)OC2C(COC(c3ccccc3)(c3ccccc3)c3ccccc3)OC(c3c[nH]c4c(N)ncnc34)C2O1 (centres undefined)
2. COc1ccccc1/C=C/c1ccnc2ccccc12
3. Cc1onc(-c2ccccc2)c1C(=O)N/N=C/c1cc(Cl)cc(Cl)c1O
4. O=C1NC(=C(Cl)Cl)/C(=N/S(=O)(=O)N2CCCCC2)N1

Response:
29
32.4
34.3
29.2

====

# Test system: HCT-15 colon
# measurementDescription: NCI tumour cell line growth inhibition, 48 h; in the data active = GI50 below about 0.43 µM; inactive = the rest
Your reply should match one of these outcome classes. yes (1) = active, no (0) = inactive

See these solved cases before continuing.
>  <molecule>
COc1ccccc1Nc1cc(O)c2c(=O)cc(-c3ccccc3)oc2c1

>  <assignedLabel>
no (0)

$$$$
>  <molecule>
COc1c/c(=C2\C=c3ccccc3=N2)[nH]/c1=C\c1[nH]c(C)cc1C

>  <assignedLabel>
yes (1)

$$$$
>  <molecule>
C[C@@H](Oc1cc(-n2cnc3ccc(OC4CCN(C)CC4)cc32)sc1C(N)=O)c1ccccc1Cl

>  <assignedLabel>
yes (1)

$$$$
>  <molecule>
Fc1ccc(-c2c(-c3ccncc3)nc3n2CCS3)cc1

>  <assignedLabel>
no (0)

$$$$

Request: Outcome? COc1ccc2ncn(-c3cc(O[C@H](C)c4ccccc4C(F)(F)F)c(C(N)=O)s3)c2c1
Response: yes (1)

Request: Next molecule up: O=c1c2ccccc2sc2c(NCCCNCCO)nc3ccccc3c12
Response: no (0)

Request: Next molecule up: O=C1Nc2c(ccc(Cl)c2Cl)/C1=C/c1cc(Br)c(O)c(Br)c1
Response: no (0)

Request: Next molecule up: CCc1ccc(Oc2c(-c3ccc(OCc4ccc(Cl)cc4)cc3O)n[nH]c2C(F)(F)F)cc1
Response: no (0)

Request: Next molecule up: CC1Cc2c(Cl)ncnc2N(C)c2ccc(Cl)cc21 (configuration not stated)
Response: yes (1)

Request: Next molecule up: O=C(CSc1nc2c(n1Nc1ccccc1)-c1ccccc1SC2)Nc1nc(-c2ccc(Cl)cc2)cs1
Response: no (0)

Request: Next molecule up: OC(CNc1ccnc2cc(Cl)ccc12)CNc1ccnc2cc(Cl)ccc12
Response: no (0)

Request: Next molecule up: Cc1cc2nc(NCCN)n(Cc3ccc(F)c(Cl)c3)c2cc1C
Response: no (0)

====

# Tested on: HCT-15 colon
# measurementDescription: NCI tumour cell line growth inhibition, 48 h
Please respond with reported TGI for every item in the list.
One number for each entry, in µM.

>  <structureSmiles>
O=C1Nc2c(ccc(Cl)c2Cl)/C1=C/c1cc(Br)c(O)c(Br)c1

>  <TGI (µM)>
35.3

$$$$

Request: Can you look up the measured TGI of O=C1NC(=C(Cl)Cl)/C(=N/S(=O)(=O)N2CCCCC2)N1 for me?
Response: 3.91

====

# Test system: COLO 205 colon
# measurementDescription: NCI tumour cell line growth inhibition, 48 h
assayEndpoint: TGI

Dear reader, for each entry below, please note its TGI.
1. CC(=O)O[C@@H]1C2CCC3C(CC[C@@]4(C)C3CC[C@@H]4C(C)N(C)C)[C@@]2(C)CC[C@@H]1NC(=O)C=C(C)C (stereo not given in full)
2. O=C1/C(=C\c2ccc(Cl)cc2)N=C(c2ccccc2)N1n1c(=O)cn[nH]c1=S

Response:
1: 3.1 µM; 2: > 100 µM

Dear reader, for each entry below, please note its TGI.
1. CSc1nc(-c2ccc(Cl)cc2)c(C#N)c(=O)n1C1OC(COC(C)=O)C(OC(C)=O)C(OC(C)=O)C1OC(C)=O (stereo not given)
2. CO/C=C/C=C(\C#N)C(=O)OC
3. CC(C)(O)C(O)COc1c2c(cc3oc(=O)ccc13)OCO2 (stereo not given)

Response:
1. > 100 µM
2. > 100 µM
3. > 100 µM

====

# Test system: LOX IMVI melanoma
# measurementDescription: NCI tumour cell line growth inhibition, 48 h
Where a SMILES comes first, the peptide text is derived from it. [ ]: non-standard residue; d: D form. The star is where a group is joined. ξ: configuration not given here. ξNMe2Val = CC(C)C(C(=O)*)N(C)C; NMeV = CN[CH](C(=O)O)C(C)C; NHBn = c1ccc(CN*)cc1
Please respond with reported TGI for every item in the list.

Dear reader, for each entry below, please note its TGI.
1. CC(C)C(NC(=O)C(C(C)C)N(C)C)C(=O)N(C)C(C(=O)N1CCCC1C(=O)N1CCCC1C(=O)NCc1ccccc1)C(C)C (stereo not given) (ξNMe2Val-V[NMeV]PP-NHBn; configuration not given here)
2. C=C[C@@H](C)[C@]1(C(=O)OC)CCCC12OCCO2
3. Cc1ccc(CC(Cc2ccccc2C)C(=O)O)c(C(=O)O)c1 (stereo not given)
4. O=C1NC2c3c(I)sc(I)c3C(=O)C2O1 (stereo not given)
5. Cc1cc2nc(NCCN)n(Cc3ccc(F)c(Cl)c3)c2cc1C

Response:
1. 0.000253 µM
2. > 100 µM
3. > 100 µM
4. 5.15 µM
5. 14.5 µM

====

# System: M14 melanoma
# measurementDescription: NCI tumour cell line growth inhibition, 48 h
assayEndpoint: TGI

Sample records with TGI:
>  <compound>
COC(=O)c1cc2c(=O)n(C)c3ccccc3n2c1C(=O)OC

>  <TGI>
> 100 µM

$$$$
>  <compound>
Cc1nn(CNc2ccccc2C(F)(F)F)c(=S)n1/N=C/c1cccc2cccnc12

>  <TGI>
> 100 µM

$$$$
>  <compound>
N#C/C(=C\c1ccc(F)cc1)c1nc(-c2cc3ccccc3oc2=O)cs1

>  <TGI>
50.7 µM

$$$$
>  <compound>
CN1C(=O)C2(C)SC1(c1ccccc1)C1C(=O)N(c3ccccc3)C(=O)C12 (stereo unspecified)

>  <TGI>
> 100 µM

$$$$
>  <compound>
CN[C@H]1CN(c2ccc3c(=O)c(C(=O)O)cn(-c4nccs4)c3n2)C[C@@H]1OC

>  <TGI>
2.34 µM

$$$$

Dear reader, for each entry below, please note its TGI.
1. N#C/C(=C\c1cc(O)cc(O)c1)C(N)=O
2. Cc1c2ccccc2c(C2C3C(=O)N(c4ccc(Br)cc4)C(=O)C3ON2C(C(N)=O)c2ccccc2)c2ccccc12 (stereo unspecified)
3. CSC12c3cc(C)n(-c4ccc([N+](=O)[O-])cc4)c3CC(C)(C)CN1C(=O)C2Oc1ccccc1 (stereo unspecified)
4. Cc1cnc2n1S(=O)(=O)c1cc(C(=O)Nc3cccc4nsnc34)c(Cl)cc1S2

Response:
1. > 100 µM
2. > 100 µM
3. > 100 µM
4. > 100 µM

Dear reader, for each entry below, please note its TGI.
1. C=CSCCC(N)C(=O)O (stereo unspecified)
2. CNC(=O)C(C)NC(=O)C(Cc1ccccc1)NC(=O)c1ccccc1 (stereo unspecified)
3. c1ccc2c(CSCc3cccc4ccccc34)cccc2c1
4. CC(=O)OC[C@H]1CN(OC(C)=O)C[C@@H](n2cc(C)c(=O)[nH]c2=O)O1
5. Cc1cc2nc(NCCN)n(Cc3ccc(F)c(Cl)c3)c2cc1C
6. COc1ccccc1/C=C/c1ccnc2ccccc12

Response:
> 100 µM
> 100 µM
> 100 µM
> 100 µM
7.07 µM
29.7 µM

Dear reader, for each entry below, please note its TGI.
1. Cc1ccc(C)n1-c1ccccc1C1C=Cn2c(=O)nnc3c(OC(C)C)c(OC(C)C)c(O)c1c32 (stereo unspecified)
2. CCOC(=O)C1=CCCC[C@H]1S(=O)(=O)Nc1ccc(F)cc1Cl

Response:
> 100 µM
96.7 µM

Dear reader, for each entry below, please note its TGI.
1. O=C(Nc1ccccc1)c1cc(S(=O)(=O)Nc2n[nH]c(=O)n2-c2ccccc2)c(S)cc1Cl
2. CC(/C=C/C(=O)NO)=C\C(C)C(=O)c1ccc(N(C)C)cc1 (stereo unspecified)
3. COC(=O)[C@]12CC3C=CC1N(C3)C(CBr)c1c2n(S(=O)(=O)c2ccccc2)c2ccccc12 (stereo partly specified)
4. Cc1cc(NC2=CC(=O)C(=O)c3ccccc32)no1

Response:
> 100 µM
0.971 µM
> 100 µM
28.3 µM
